# GI50 per entry
Test system: NCI-H1048 cells
Assay: MTT proliferation assay, NCI-H1048
Format: cell-based
Conditions: 5 days compound exposure, 1:3 serial dilution starting at 10 μM
*1 amine or outer side, *2 acyl side, *3 side chain or, on linkers, in order; H or OH if unused. Where a SMILES comes first, the peptide text is derived from it. Bridges are numbered along the chain shown (N, C = ends). [ ]: non-standard residue; d: D form. The star is where a group is joined. NMeAla(5-Cl-2-cPrO-3-pyridyl) = CN[C@@H](Cc1cc(Cl)cnc1OC1CC1)C(=O)O; X172 = CC(=O)N1CC=C(c2ccc(F)cc2C[C@@H](C(=O)[*:2])N(C)[*:1])CC1; NMehhhLys(Me) = CN([C@@H](CCCCCCCN(C)[*:3])C(=O)[*:2])[*:1]; X22 = CN([C@@H](Cc1cc(Cl)ccc1-c1cnn(C)c1)C(=O)[*:2])[*:1]; NMe(hhhLys) = CN([C@@H](CCCCCCCN[*:3])C(=O)[*:2])[*:1]; Oxane2carbonyl(2R-CF3) = O=C([C@@]1(C(F)(F)F)CCCCO1)*; Cyclobutanecarbonyl(1-CF3) = O=C(C1(C(F)(F)F)CCC1)*; cBuCO(3,3-F2-1-CF3) = O=C(C1(C(F)(F)F)CC(F)(F)C1)*; X25 = CCOc1ncc(Cl)cc1C[C@@H](C(=O)[*:2])N(C)[*:1]; Pro(trans-4-F) = O=C(O)[C@@H]1C[C@@H](F)CN1; Gly(cPr) = N[C@H](C(=O)O)C1CC1
Report only the number, with the unit nM understood.

Example compounds with recorded GI50:
CC(=O)N1CC=C(c2ccc(F)cc2C[C@H]2C(=O)NCCCCCCC[C@H](N(C)C(=O)[C@@H](NC(=O)[C@@H]3C[C@@H](F)CN3C(=O)C3(C(F)(F)F)CC(F)(F)C3)C3CC3)C(=O)N[C@@H](CC(C)C)C(=O)N2C)CC1 [Example 217] ({cBuCO(3,3-F2-1-CF3)}-[Pro(trans-4-F)][Gly(cPr)][NMe(hhhLys)]L[X172]; lactam 3-C) :: 10
CCN1CCCCCCC[C@H](N(C)C(=O)[C@@H](NC(=O)[C@@H]2C[C@@H](F)CN2C(=O)C2(C(F)(F)F)CC(F)(F)C2)C2CC2)C(=O)N[C@@H](CC(C)C)C(=O)N(C)[C@@H](Cc2cc(Cl)ccc2-c2ccc(N3CCOCC3)cc2)C1=O :: 20
CC(C)C[C@@H]1NC(=O)[C@@H](N(C)C(=O)[C@@H](NC(=O)[C@@H]2C[C@@H](F)CN2C(=O)[C@@]2(C(F)(F)F)CCCCO2)C2CC2)C/C=C\CCCCN(C)C(=O)[C@H](Cc2cc(Cl)ccc2-c2cnn(C)c2)N(C)C1=O :: 10
CC(C)C[C@@H]1NC(=O)[C@@H](N(C)C(=O)[C@@H](NC(=O)[C@@H]2C[C@@H](F)CN2C(=O)C2(C(F)(F)F)CCC2)C2CC2)CCCCCCCNC(=O)[C@H](Cc2cc(Cl)ccc2-c2cnn(C)c2)N(C)C1=O [Example 70] ({Cyclobutanecarbonyl(1-CF3)}-[Pro(trans-4-F)][Gly(cPr)][NMe(hhhLys)]L[X22]; lactam 3-C) :: 10
CC(C)C[C@@H]1NC(=O)[C@@H](N(C)C(=O)[C@@H](NC(=O)[C@@H]2C[C@@H](F)CN2C(=O)C2(C(F)(F)F)CCC2)C2CC2)CC=CCCCCNC(=O)[C@H](Cc2cc(Cl)ccc2-c2cnn(C3COC3)c2)N(C)C1=O :: 140

Documented GI50 of CCOc1ncc(Cl)cc1C[C@H]1C(=O)N(C)CCCCCCC[C@H](N(C)C(=O)[C@@H](NC(=O)[C@@H]2C[C@@H](F)CN2C(=O)[C@@]2(C(F)(F)F)CCCCO2)C2CC2)C(=O)N[C@@H](CC(C)C)C(=O)N1C [Example 226] ({Oxane2carbonyl(2R-CF3)}-[Pro(trans-4-F)][Gly(cPr)][NMehhhLys(Me)]L[X25]; lactam 3-C) : 20

Entry CC(C)C[C@@H]1NC(=O)[C@@H](N(C)C(=O)[C@@H](NC(=O)[C@@H]2C[C@@H](F)CN2C(=O)C2(C(F)(F)F)CCC2)C2CC2)CCCCCCCN(C)C(=O)[C@H](Cc2cc(Cl)cnc2OC2CC2)N(C)C1=O [Example 109] ({Cyclobutanecarbonyl(1-CF3)}-[Pro(trans-4-F)][Gly(cPr)][NMehhhLys(Me)]L[NMeAla(5-Cl-2-cPrO-3-pyridyl)]; lactam 3-C) — recorded GI50 = 20

* * *

Test system: NCI-H1048 cells
Assay: MTT proliferation assay, NCI-H1048;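 also: Dose-response in 96-well plates over 8 or 10 concentration points, with exposure spanning 3-4 cell doublings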
Format: cell-based
Details: 5 days compound exposure, 1:3 serial dilution starting at 10 μM
*1 amine or outer side, *2 acyl side, *3 side chain or, on linkers, in order; H or OH if unused. Where a SMILES comes first, the peptide text is derived from it. Bridges are numbered along the chain shown (N, C = ends). [ ]: non-standard residue; d: D form. The star is where a group is joined. X42 = CN([C@@H](Cc1cc(Cl)ccc1-c1cnn(S(=O)(=O)C2CC2)c1)C(=O)[*:2])[*:1]; X98 = CN1CC2(C1)OCc1cc(-c3ccc(Cl)cc3C[C@@H](C(=O)[*:2])N(C)[*:1])ccc12; X60 = CN([C@@H](Cc1cc(Cl)ccc1-c1cnn2ccncc12)C(=O)[*:2])[*:1]; NMehhhLys(Me) = CN([C@@H](CCCCCCCN(C)[*:3])C(=O)[*:2])[*:1]; X174 = CN([C@@H](Cc1cc(Cl)cnc1-c1cnn(C)c1)C(=O)[*:2])[*:1]; X199 = CN([C@@H](Cc1cc(Cl)ccc1C1=CCOC1)C(=O)[*:2])[*:1]; Cyclobutanecarbonyl(1-CF3) = O=C(C1(C(F)(F)F)CCC1)*; cBuCO(3,3-F2-1-CF3) = O=C(C1(C(F)(F)F)CC(F)(F)C1)*; Pro(trans-4-F) = O=C(O)[C@@H]1C[C@@H](F)CN1; Gly(cPr) = N[C@H](C(=O)O)C1CC1
PARAMETER: GI50 (nM)
I only need the number, in nM, no unit after it.

Here's what some known entries look like.
CC(C)C[C@@H]1NC(=O)[C@@H](N(C)C(=O)[C@@H](NC(=O)[C@@H]2C[C@@H](F)CN2C(=O)C2(C(F)(F)F)CC(F)(F)C2)C2CC2)CCCCCCCN(C)C(=O)[C@H](Cc2cc(Cl)ccc2-c2cnn3ccncc23)N(C)C1=O [Example 305] ({cBuCO(3,3-F2-1-CF3)}-[Pro(trans-4-F)][Gly(cPr)][NMehhhLys(Me)]L[X60]; lactam 3-C) :: 10
CC(C)C[C@@H]1NC(=O)[C@@H](N(C)C(=O)[C@@H](NC(=O)[C@@H]2C[C@@H](F)CN2C(=O)C2(C(F)(F)F)CC(F)(F)C2)C2CC2)CCCCCCCN(C)C(=O)[C@H](Cc2cc(Cl)ccc2C2=CCOC2)N(C)C1=O [Example 209] ({cBuCO(3,3-F2-1-CF3)}-[Pro(trans-4-F)][Gly(cPr)][NMehhhLys(Me)]L[X199]; lactam 3-C) :: 10
CC(C)C[C@@H]1NC(=O)[C@@H](N(C)C(=O)[C@@H](NC(=O)[C@@H]2C[C@@H](F)CN2C(=O)C2(C(F)(F)F)CC(F)(F)C2)C2CC2)CCCCCCCN(C)C(=O)[C@H](Cc2cc(Cl)ccc2-c2cnn(S(=O)(=O)C3CC3)c2)N(C)C1=O [Example 254] ({cBuCO(3,3-F2-1-CF3)}-[Pro(trans-4-F)][Gly(cPr)][NMehhhLys(Me)]L[X42]; lactam 3-C) :: 20
CC(C)C[C@@H]1NC(=O)[C@@H](N(C)C(=O)[C@@H](NC(=O)[C@@H]2C[C@@H](F)CN2C(=O)C2(C(F)(F)F)CCC2)C2CC2)CCCCCCCN(C)C(=O)[C@H](Cc2cc(Cl)cnc2-c2cnn(C)c2)N(C)C1=O [Example 247] ({Cyclobutanecarbonyl(1-CF3)}-[Pro(trans-4-F)][Gly(cPr)][NMehhhLys(Me)]L[X174]; lactam 3-C) :: 50

// GI50 lookup, compound = CC(C)C[C@@H]1NC(=O)[C@@H](N(C)C(=O)[C@@H](NC(=O)[C@@H]2C[C@@H](F)CN2C(=O)C2(C(F)(F)F)CC(F)(F)C2)C2CC2)CCCCCCCN(C)C(=O)[C@H](Cc2cc(Cl)ccc2-c2ccc3c(c2)COC32CN(C)C2)N(C)C1=O [Example 355] ({cBuCO(3,3-F2-1-CF3)}-[Pro(trans-4-F)][Gly(cPr)][NMehhhLys(Me)]L[X98]; lactam 3-C) , result: 10

// GI50 lookup, compound = `CC(C)C[C@@H]1NC(=O)[C@@H](N(C)C(=O)[C@@H](NC(=O)[C@@H]2C[C@@H](F)CN2C(=O)C2(C(F)(F)F)CCC2)C2CC2)CC=CCCCCNC(=O)[C@H](Cc2cc(Cl)ccc2-c2cnn(CCO)c2)N(C)C1=O` , result: 90
